Tested on: human progesterone receptor (hPR)
Assay: human progesterone receptor binding assay (displacement of 3H R5020 promegestone)
measure name: hPR % inh 10 μM (%)
The figure you give is taken to be in %; do not add the unit.

Example cases with answers are listed next.
{"columns": ["compound", "hPR % inh 10 μM [%]"],
 "data": [
  ["O=C(NCC(c1ccc(I)cc1)C(c1ccccc1)c1ccccc1)c1ccccc1Cl (stereo not drawn)", 32],
  ["O=C(NCC(c1ccc(I)cc1)C(c1ccccc1)c1ccccc1)c1cccs1 (stereo not drawn)", 53],
  ["O=C(NCC(c1ccc(I)cc1)C(c1ccccc1)c1ccccc1)c1ccc(C(F)(F)F)cc1 (stereo not drawn)", 53]
]}

Form: compound = O=C(NCC(c1ccc(I)cc1)C(c1ccccc1)c1ccccc1)c1cc(C(F)(F)F)cc(C(F)(F)F)c1 (stereo not drawn) ; hPR % inh 10 μM = 53

Form: compound = O=C(Cc1ccc(C(F)(F)F)cc1)NCC(c1ccc(I)cc1)C(c1ccccc1)c1ccccc1 (stereo not drawn) ; hPR % inh 10 μM = 46

Form: compound = O=C(Cc1ccccc1Cl)NCC(c1ccc(I)cc1)C(c1ccccc1)c1ccccc1 (stereo not drawn) ; hPR % inh 10 μM = 42
